- study_target: Galanin receptor type 2 (Homo sapiens)
- Sequence (O43603 whole entry): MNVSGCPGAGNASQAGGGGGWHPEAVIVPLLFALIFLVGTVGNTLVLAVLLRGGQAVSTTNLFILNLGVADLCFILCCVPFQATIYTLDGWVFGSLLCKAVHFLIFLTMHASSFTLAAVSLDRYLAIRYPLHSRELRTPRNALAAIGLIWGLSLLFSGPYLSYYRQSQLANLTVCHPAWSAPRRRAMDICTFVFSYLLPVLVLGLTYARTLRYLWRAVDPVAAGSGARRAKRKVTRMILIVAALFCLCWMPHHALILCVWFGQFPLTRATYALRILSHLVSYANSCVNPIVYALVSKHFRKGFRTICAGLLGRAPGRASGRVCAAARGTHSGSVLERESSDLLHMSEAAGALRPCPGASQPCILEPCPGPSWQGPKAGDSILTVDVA
Square brackets hold non-standard residues; d marks the D form. Peptide text beside a SMILES is read from it. * marks the point of attachment. Fmoc = O=C(OCC1c2ccccc2-c2ccccc21)*; Cha = N[C@@H](CC1CCCCC1)C(=O)O; AMC = Cc1cc(=O)oc2cc(N*)ccc12

{"columns": ["compound", "unit_info", "Kd"],
 "data": [
  ["CSCC[C@H](NC(=O)[C@H](CC(C)C)NC(=O)CNC(=O)[C@H](Cc1ccccc1)NC(=O)[C@H](Cc1ccccc1)NC(=O)[C@H](CCC(N)=O)NC(=O)[C@H](CCC(N)=O)NC(=O)[C@@H]1CCCN1C(=O)CNC(=O)[C@H](CC(C)C)NC(=O)[C@H](CC(C)C)NC(=O)[C@H](Cc1ccc(O)cc1)NC(=O)CNC(=O)[C@H](C)NC(=O)[C@H](CO)NC(=O)[C@H](CC(N)=O)NC(=O)[C@H](CC(C)C)NC(=O)[C@@H](NC(=O)[C@H](Cc1c[nH]c2ccccc12)NC(=O)CN)[C@@H](C)O)C(N)=O [GALANTIDE]", "nM", 1],
  ["CC(C)C[C@H](NC(=O)[C@H](CC(C)C)NC(=O)[C@H](Cc1ccc(O)cc1)NC(=O)CNC(=O)[C@H](C)NC(=O)[C@H](CO)NC(=O)[C@H](CC(N)=O)NC(=O)[C@H](CC(C)C)NC(=O)[C@@H](NC(=O)[C@@H](N)Cc1c[nH]c2ccccc12)[C@@H](C)O)C(=O)O", "nM", 1.8],
  ["CC(C)C[C@H](NC(=O)[C@H](CC(C)C)NC(=O)[C@H](Cc1ccc(O)cc1)NC(=O)CNC(=O)[C@H](C)NC(=O)[C@H](CO)NC(=O)[C@H](CC(N)=O)NC(=O)[C@H](CC(C)C)NC(=O)[C@@H](NC(=O)[C@H](Cc1c[nH]c2ccccc12)NC(=O)CN)[C@@H](C)O)C(=O)NCC(=O)N1CCC[C@H]1C(=O)N1CCC[C@H]1C(=O)N1CCC[C@H]1C(=O)NCC(=O)N[C@@H](Cc1ccccc1)C(=O)N[C@@H](CO)C(=O)N1CCC[C@H]1C(=O)N[C@@H](Cc1ccccc1)C(=O)N[C@@H](CCCN=C(N)N)C(N)=O", "nM", 2],
  ["Cc1cc(=O)oc2cc(NC(=O)[C@@H](CCCCN)NC(=O)[C@H](CC3CCCCC3)NC(=O)OCC3c4ccccc4-c4ccccc43)ccc12 [GALNON] (Fmoc-[Cha]-[dK]-{AMC})", "nM", 24000]
]}
